Data origin: the METLIN SMRT retention time set (Domingo-Almenara et al. 2019)

- PROTOCOL_DESCRIPTION: gradient 5% acetonitrile 3 min, to 50% in 2 min, to 85% in 15 min, held 3 min, 100 µL/min
- PARTICULARS: column: Zorbax Extend-C18 2.1 x 50 mm; eluents: water / acetonitrile, 0.1% formic acid
Examples of compounds with documented RP-LC retention time follow.

- COMPOUND: "CCN1C=C(C(=O)OCc2cccc(Cl)c2)C(C)=NS1(=O)=O"
  RP-LC retention time [s]: 1050
- COMPOUND: "Cc1ccc(N2CCC(NC(=O)Nc3cc(Cl)ccc3C)C2=O)cc1 (stereo not given)"
  RP-LC retention time [s]: 956
- COMPOUND: "O=C1NCCCCCCN(C(=O)Nc2ccc(F)cc2)[C@H]2CCC[C@@H]12"
  RP-LC retention time [s]: 780
- COMPOUND: "O=C(NCC1CCCO1)c1ccc2ncnc(N3CCCC3)c2c1 (stereo not given)"
  RP-LC retention time [s]: 575
- COMPOUND: "O=C(CC1CCCCC1)N1CCC(c2ccncc2)CC1"
  RP-LC retention time [s]: 622
- COMPOUND: "Cc1cc(=O)n(CC(=O)Nc2ccccc2)c(N2CCOCC2)n1"
  RP-LC retention time [s]: 628
- COMPOUND: "CC1Oc2ccc(-c3csc(NC(=O)c4ccncc4)n3)cc2N(C)C1=O (stereo not given)"
  RP-LC retention time [s]: 766
- COMPOUND: "CC(C)c1noc(C2CCCCN2C(=O)c2cnn3cccnc23)n1 (stereo not given)"
  RP-LC retention time [s]: 755
- COMPOUND: "O=C(NCC1CC1)[C@@H]1OCCN(C2CC2)[C@H]1c1ccccc1"
  RP-LC retention time [s]: 612
- COMPOUND: "COc1ccc2c(c1)c(CN1CCC(C(=O)NCc3ccccc3C)CC1)cn2C"
  RP-LC retention time [s]: 697

====

- PROTOCOL_DESCRIPTION: gradient 5% acetonitrile 3 min, to 50% in 2 min, to 85% in 15 min, held 3 min, 100 µL/min
- PARTICULARS: column: Zorbax Extend-C18 2.1 x 50 mm; eluents: water / acetonitrile, 0.1% formic acid

- MOLECULE: "COc1ccc(-c2noc(C3CC(=O)N(c4ccc(OC)c(OC)c4)C3)n2)cc1OC (stereo unspecified)"
  RP-LC retention time, s: 743
- MOLECULE: "CCCn1c(C2CCN(C(=O)Nc3ccc(C)cc3)CC2)cc(=O)n2nccc12"
  RP-LC retention time, s: 653
- MOLECULE: "CN(C)[C@@H]1CN(C(=O)c2n[nH]c3ccccc23)C[C@H]1CO"
  RP-LC retention time, s: 552
- MOLECULE: "CCc1nc(-c2csc(S(=O)(=O)N3CCCC(C(=O)Nc4ccc(F)cc4C)C3)c2)no1 (stereo unspecified)"
  RP-LC retention time, s: 1020
- MOLECULE: "COc1ccc(C)cc1NC(=O)N1CCc2cn(C)c3cccc(c23)C1"
  RP-LC retention time, s: 822
- MOLECULE: "COC1C(=O)N(c2cccc(F)c2)C12CCN(C(=O)Nc1ccccc1)CC2 (stereo unspecified)"
  RP-LC retention time, s: 878

====

- PROTOCOL_DESCRIPTION: gradient 5% acetonitrile 3 min, to 50% in 2 min, to 85% in 15 min, held 3 min, 100 µL/min
- PARTICULARS: column: Zorbax Extend-C18 2.1 x 50 mm; eluents: water / acetonitrile, 0.1% formic acid
Lab note: anything with RP-LC retention time below 800 s is marked Y; values at 800 s or higher are marked N.

- MOLECULE: "Cc1noc(C)c1CN1CCC(n2c(C)cnc2-c2ccncc2)C1 (stereo not given)"
  ASSIGNED_CLASS: "Y"
- MOLECULE: "Cc1ccc(OCc2nn3c(COc4ccc(F)cc4)nnc3s2)cc1C"
  ASSIGNED_CLASS: "N"
- MOLECULE: "CSc1ccc(NC(=O)Nc2cccc(-c3ccc(N4CCOCC4)nn3)c2)cc1"
  ASSIGNED_CLASS: "Y"
